target.under.test: KRAS G13D (Homo sapiens (Human), UniProt P01116+P62937, G13D)
Sequence (P01116-2 other isoform, or with tags, fused parts or gaps G13D): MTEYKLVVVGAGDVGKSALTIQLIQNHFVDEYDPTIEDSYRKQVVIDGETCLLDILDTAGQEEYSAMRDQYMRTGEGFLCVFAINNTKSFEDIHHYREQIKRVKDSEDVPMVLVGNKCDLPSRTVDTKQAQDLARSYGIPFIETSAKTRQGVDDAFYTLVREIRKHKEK
Sequence (P62937 whole entry): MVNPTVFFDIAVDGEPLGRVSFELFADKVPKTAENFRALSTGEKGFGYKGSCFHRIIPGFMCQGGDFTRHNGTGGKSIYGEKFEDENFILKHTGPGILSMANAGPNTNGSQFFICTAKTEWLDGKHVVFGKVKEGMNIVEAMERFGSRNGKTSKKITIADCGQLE
measurement.protocol: Ras-Raf (BRAF RBD) disruption / FRET / MOA assay, KRAS G13D
Format: biochemical
experimental.context: read-out: IC50* KRAS G13D FRET data
Experimental: The purpose of this biochemical assay is to measure the ability of test compounds to facilitate ternary complex formation between a nucleotide-loaded Ras isoform and cyclophilin A; the resulting ternary complex disrupts binding to a BRAF^RBD construct, inhibiting Ras signaling through a RAF effector. Compound is present in plate wells as a 10-point 3-fold dilution series starting at a final concentration of 30 μM. […]
measured.property: IC50

1. C=CC(=O)N1CC[C@H](C(=O)N2CC[C@H](C)[C@H]2C(=O)N[C@H]2Cc3cccc(c3)-c3ccc4c(c3)c(c(-c3cccnc3[C@H](C)OC)n4CC)CC(C)(C)COC(=O)[C@@H]3CCCN(N3)C2=O)C1 (atropisomer, axis not shown) = > 10000 nM
2. C=CC(=O)N(C)[C@@H]1C[C@H](C)N(C(=O)N(C)[C@H](C(=O)N[C@H]2Cc3nc(cs3)-c3ccc4c(c3)c(c(-c3cccnc3[C@H](C)OC)n4CC)CC(C)(C)COC(=O)[C@@H]3CCCN(N3)C2=O)C(C)C)C1 (atropisomer, axis not shown) = 100 to 1000 nM
